# measuredTarget: AAV8 (adeno-associated virus serotype 8)
# testMethodNotes: SPR, AAV on CM5 chip
quantityName: Kd (nM)
Give bare numbers, in nM.

What value of measured Kd is listed for A4-C3 (bispecific antibody) VQLQESGGGLVQPGGSLRLSCAASGSIFSINLMGWYRQAPGKQRELVATITRGGNTNYAGSVKGRFTISRDNAKNTVYLQMNSLRPEDTAVYYCHVDEVRQSSWTTSNLWGQGTQVTVSSGGGGSGGGGSGGGGSVQLQESGGGLVQPGGSLRLSCAASGSIFSINLMGWYRQAPGKQRELVATITRGGNTNYAGSVKGRFTISRDNAKNTVYLQMNSLRPEDTAVYYCHVDEVRQSSWTTSNLWGQGTQVTVSSGGGGSGGGGSGGGGSVQLQESGGGLVQPGGSLRLSCAASGSNFRINTMGWYRQAPGKQRELVATVTRGGSTNYADSVKGRFTISRDNPKDTVYLQMNSLRPEDTAVYYCHVDEVRESSWTTSNLWGQGTQVTVSS ?
0.534
